# System: Candida albicans
# assay-summary: Antifungal activity against Candida albicans SC5314 cultured in YNB media after 48 hrs by broth microdilution method
# Type: functional
# condition-set: SC5314, 48 h
observable: MIC (µg/mL)

# compound, target, observable, units-of-measure, quantitative-readout
records = [
    ("CCOC(=O)c1ccccc1OS(=O)(=O)NC(=O)Nc1nc(OC)cc(OC)n1", "Candida albicans", "MIC", "µg/mL", 2.5),
    ("CCOc1ccccc1OS(=O)(=O)[N-]C(=O)Nc1nc(OC)cc(OC)n1.[Na+]", "Candida albicans", "MIC", "µg/mL", 1.25),
    ("CCOc1ccccc1OS(=O)(=O)NC(=O)Nc1nc(OC)cc(OC)n1 [ETHOXYSULFURON]", "Candida albicans", "MIC", "µg/mL", 1.25),
    ("CCOC(=O)c1ccccc1OS(=O)(=O)[N-]C(=O)Nc1nc(OC)cc(OC)n1.[Na+]", "Candida albicans", "MIC", "µg/mL", 2.5),
    ("COc1cc(OC)nc(NC(=O)[N-]S(=O)(=O)Oc2ccccc2OCCI)n1.[Na+]", "Candida albicans", "MIC", "µg/mL", 5),
]

----------
# System: Candida albicans
# assay-summary: Antifungal activity against fluconazole-resistant Candida albicans isolate g5 cultured in YNB media after 24 hrs by broth microdilution method
# Type: functional
# condition-set: isolate g5, 24 h
The reader will find reported MIC values listed item by item below.

# compound, target, units-of-measure, MIC
data = [
    ("COc1cc(OC)nc(NC(=O)[N-]S(=O)(=O)Oc2ccccc2OCCI)n1.[Na+]", "Candida albicans", "mg/L", 5),
    ("CCOC(=O)c1ccccc1OS(=O)(=O)[N-]C(=O)Nc1nc(OC)cc(OC)n1.[Na+]", "Candida albicans", "mg/L", 2.5),
    ("CCOc1ccccc1OS(=O)(=O)[N-]C(=O)Nc1nc(OC)cc(OC)n1.[Na+]", "Candida albicans", "mg/L", 1.25),
    ("CCOC(=O)c1ccccc1OS(=O)(=O)NC(=O)Nc1nc(OC)cc(OC)n1", "Candida albicans", "mg/L", 2.5),
    ("CCOc1ccccc1OS(=O)(=O)NC(=O)Nc1nc(OC)cc(OC)n1 [ETHOXYSULFURON]", "Candida albicans", "mg/L", 1.25),
]

----------
# assay-summary: Toxicity in po dosed rat
# Format: organism-based
# condition-set: in vivo

# molecule, LD50
data = [
    ("CCOC(=O)c1ccccc1S(=O)(=O)NC(=O)Nc1nc(Cl)cc(OC)n1 [CHLORIMURON ETHYL]", "> 4000 mg/kg"),
]

----------
# Tested on: Candida parapsilosis
# assay-summary: Antifungal activity against Candida parapsilosis ATCC 22019 cultured in YNB media after 48 hrs by broth microdilution method
# Format: functional
# condition-set: Lodderomyces parapsilosis, ATCC 22019, 48 h

# smiles-record, target, MIC (µg/mL)
rows = [
    ("C[C@@H]1[C@H](O)[C@@H](C)/C=C/C=C/C=C/C=C/C=C/C=C/C=C/[C@H](O[C@@H]2O[C@H](C)[C@@H](O)[C@H](N)[C@@H]2O)C[C@@H]2O[C@](O)(C[C@@H](O)C[C@@H](O)[C@H](O)CC[C@@H](O)C[C@@H](O)CC(=O)O[C@H]1C)C[C@H](O)[C@H]2C(=O)O", "Candida parapsilosis", 2.5),
    ("CCOC(=O)c1ccccc1OS(=O)(=O)[N-]C(=O)Nc1nc(OC)cc(OC)n1.[Na+]", "Candida parapsilosis", 2.5),
    ("COc1cc(OC)nc(NC(=O)[N-]S(=O)(=O)Oc2ccccc2OCCI)n1.[Na+]", "Candida parapsilosis", 20),
    ("CCOc1ccccc1OS(=O)(=O)[N-]C(=O)Nc1nc(OC)cc(OC)n1.[Na+]", "Candida parapsilosis", 2.5),
    ("CCOC(=O)c1ccccc1OS(=O)(=O)NC(=O)Nc1nc(OC)cc(OC)n1", "Candida parapsilosis", 2.5),
    ("CCOc1ccccc1OS(=O)(=O)NC(=O)Nc1nc(OC)cc(OC)n1", "Candida parapsilosis", 2.5),
]
